Reference for the values: patent US20210332111A1

target: ZIKV strain H/PF/2013 (French Polynesia, 2013), infectious virus (Zika virus, strain H/PF/2013); assay: cell-based or functional assay
OUTCOME_MEASURE: % Neutralization (undiluted sups), focus reduction on Vero cells

>  <BINDER>
ZV-67 monoclonal antibody (antibody, V domains shown, also called ZIKV-67) VH: QAQLQQSGTGLARPGASVKLSCKASGYTFTSYGISWVTQRAGQGLEWIGVIYPRSGNTYYNEKFRGKATLTADKSSSSAYMELRGLTAEDSAVYFCARENYGSVYWGQGTTLTVSS VL: DIVMTQSQKFMSTSVGDRVSITCKASQNVGTAVAWYQQKPGQSPKLLIYSASNRYTGVPDRFTGSGSGTDFTLTISNMQSEDLADYFCQQFSSYPYTFGGGTKLEIK

>  <RESULT>
100%

$$$$
>  <BINDER>
ZV-54 monoclonal antibody (antibody, V domains shown, also called ZIKV-54) VH: QVQLQQSGVGLARPGTSVKLSCKASGYSFTTYGISWVTQRPGQGLEWIGVIYPRSNNTYYNERFRGKATLTADKSSSSAYLELRGLTAEDSAVYFCARENYGSVYWGQGTTLTVSS VL: DIVMTQSQKFMSTSVGDRVTITCKASQSVGTAVAWYHQKPGQSPKLLIYSASNRYTGVPDRFTGSGSGTDFTLTITYMQSEDLADYFCQQFSNYPFTFGGGTKLEIK

>  <RESULT>
100%

$$$$
>  <BINDER>
ZV-2 monoclonal antibody (antibody, V domains shown, also called ZIKV-2) VH: QVQLQESGAELMKPGASVKLSCKTSGYTFIGYWIEWLKQRPGHGLEWVGEIFPGSGRTKYNEKFKGRATFTADTSSNMAYMQLSSLTTEDSAIYYCARYYYGSYYALDYWGQGTSVTVSS VL: DIVMTQSPSSLSVSAGEKVTLSCKSSQSLLHSGNQKNYLAWYQQKPGQAPKLLIYGASTRESGVPDRFTGSGSGTDFTLTISSVQAEDLAVYYCQNDHSYPLTFGAGTKLELK

>  <RESULT>
< 30%

$$$$
>  <BINDER>
ZV-48 monoclonal antibody (antibody, V domains shown, also called ZIKV-48) VH: QVQLQQPGAELLKPGASVKLSCKASGYSFSNYWMHWVKQRPGQGPEWIGMIHPNSGNTKYNEKFKNKATLTVDKSSSMVYMQLSSLTSEDSAVFYCARLGNDMDYWGQGTSVTVSS VL: DIVMSQSPSSLAVSVGEKITMSCKSSQSLLYSNNEKNYLAWYQQKPGQSPKLLIYWASARDSGVPDRFTGSGSGTDFTLTISSVKAEDLAVFYCQQYYSYPYTFGGGTKLEIK

>  <RESULT>
100%

$$$$
